biological target: T1, Antibody 178-10_His CA_W152C_L452R_D614G (27081) (SARS-CoV-2, UniProt P0DTC2 14-685); test: Carterra SPR
T1 construct: domain: S1; also called CA variant S1; California variant S1
Let's look at some binders and their measured Kd.
ENDPOINT: Kd (nM)

• 7-37 (VHH) VHH: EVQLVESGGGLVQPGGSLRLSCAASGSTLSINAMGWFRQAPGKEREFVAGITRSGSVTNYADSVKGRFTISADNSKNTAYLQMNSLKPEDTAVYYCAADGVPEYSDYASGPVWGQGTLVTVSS = 45.1
• 8-3 (VHH, not shown: a dimerising Fc or GST) VHH: EVQLVESGGGLVQPGGSLRLSCAASGTTLDYYAMGWFRQAPGKEREFVAAISWSGGSTAYADSVKGRFTISADNSKNTAYLQMNSLKPEDTAVYYCAREDYYDSSGYSWGQGTLVTVSS = 100
• 3-31 (VHH, also called 3-31_ExpiCHO) VHH: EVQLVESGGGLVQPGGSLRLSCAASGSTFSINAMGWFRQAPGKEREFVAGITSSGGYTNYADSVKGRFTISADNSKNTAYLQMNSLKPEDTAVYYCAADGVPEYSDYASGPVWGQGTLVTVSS = 41
• 7-14 (VHH) VHH: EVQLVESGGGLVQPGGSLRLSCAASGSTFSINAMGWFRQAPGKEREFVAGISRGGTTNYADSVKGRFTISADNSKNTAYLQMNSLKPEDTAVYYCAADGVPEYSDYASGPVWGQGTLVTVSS = 43.1
